Method description: in vitro
Measurement parameters: human, liver microsomes
Experimental readout: half-life at 5 µM (min)

1. CC(C)(C)CC[C@]1(C)CN(C2CC2)C(=O)C(C2=NS(=O)(=O)c3cc(NS(C)(=O)=O)ccc3N2)=C1O
2. CC(C)CC[C@@H]1CN(C2CCCC2)C(=O)C(C2=NS(=O)(=O)c3cc(NS(C)(=O)=O)ccc3N2)=C1O
input: Compare reported half-life at 5 µM values for 1 and 2 . Which is lower? Write the label of whichever entry you select.
output: 1
(1: 10 min, 2: 32 min)

---

Tested on: Hepatitis C virus
Method description: microbe, parasite or virus in culture
Measurement parameters: genotype 1b, Huh-7, 72 h
Experimental readout: EC50 (nM)

These recorded examples may help you get a feel for the data.
CS(=O)(=O)Nc1ccc2c(c1)S(=O)(=O)N=C(C1=C(O)CC3(CCCC3)N(Cc3ccc(F)cc3)C1=O)N2 : 840
CS(=O)(=O)Nc1ccc2c(c1)S(=O)(=O)N=C(C1=C(O)C[C@H](c3ccccc3)N(Cc3ccc(F)cc3)C1=O)N2 : 660
CS(=O)(=O)Nc1ccc2c(c1)S(=O)(=O)N=C(C1=C(O)C3(CCC3)CN(Cc3ccc(F)cc3)C1=O)N2 : 770
CC(C)C[C@@H]1CC(O)=C(C2=NS(=O)(=O)c3cc(NS(C)(=O)=O)ccc3N2)C(=O)N1Cc1ccc(F)cc1 : 2900

P. CS(=O)(=O)Nc1ccc2c(c1)S(=O)(=O)N=C(C1=C(O)CCN(Cc3ccc(F)cc3)C1=O)N2
Q. CC(C)CC[C@]1(C)CN(C2CCC2)C(=O)C(C2=NS(=O)(=O)c3cc(NS(C)(=O)=O)ccc3N2)=C1O
R. CC(C)(C)CC[C@]1(C)CN(C2CCC2)C(=O)C(C2=NS(=O)(=O)c3cc(NS(C)(=O)=O)ccc3N2)=C1O
S. CC(C)(C)[C@H]1CC(O)=C(C2=NS(=O)(=O)c3cc(NS(C)(=O)=O)ccc3N2)C(=O)N1Cc1ccc(F)cc1
input: Please put the entries in order of rising EC50. Rank them, then answer with their labels in that order.
output: Q, R, S, P
(Q: 14 nM, R: 460 nM, S: 810 nM, P: 3900 nM)

---

Method description: Apparent permeability from apical to basolateral side in human Caco-2 cells at 10 uM after 3 hrs
Format: ADME, cell-based
Experimental readout: Papp A→B at 3 h, 10 µM (×10⁻⁶ cm/s)

1. CC(C)CC[C@]1(C)CN(C2CCC2)C(=O)C(C2=NS(=O)(=O)c3cc(NS(C)(=O)=O)ccc3N2)=C1O
2. CS(=O)(=O)Nc1ccc2c(c1)S(=O)(=O)N=C(C1=C(O)[C@@H]3CCC[C@@H]3N(Cc3ccc(F)cc3)C1=O)N2
input: Compare reported Papp A→B at 3 h, 10 µM values for 1 and 2 . Which is lower? Write the label of whichever entry you select.
output: 2
(2: 1.6 ×10⁻⁶ cm/s, 1: 2.9 ×10⁻⁶ cm/s)

---

Method description: Clearance in cynomolgus monkey at 1 mg/kg, iv
Format: ADME, organism-based, Macaca fascicularis
Set-up: dose 1 mg/kg, route intravenous
Measurement parameters: in vivo
Experimental readout: clearance (mL/min/kg)

P. CC(C)CC[C@]1(C)CN(C2CCC2)C(=O)C(C2=NS(=O)(=O)c3cc(NS(C)(=O)=O)ccc3N2)=C1O
Q. CS(=O)(=O)Nc1ccc2c(c1)S(=O)(=O)N=C(C1=C(O)[C@@H]3CCC[C@@H]3N(Cc3ccc(F)cc3)C1=O)N2
input: Returns: the argument ( P or Q ) having the larger clearance. Write the label of whichever entry you select.
output: P

---

System: Hepatitis C virus
Method description: microbe, parasite or virus in culture
Measurement parameters: genotype 1b, Huh-7, 72 h
Experimental readout: EC50 (nM)

These recorded examples may help you get a feel for the data.
CC[C@@]1(CCC(C)C)CN(C2CCCC2)C(=O)C(C2=NS(=O)(=O)c3cc(NS(C)(=O)=O)ccc3N2)=C1O : 300
CS(=O)(=O)Nc1ccc2c(c1)S(=O)(=O)N=C(C1=C(O)C3(CC3)CN(Cc3ccc(F)cc3)C1=O)N2 : 550
CC[C@@H]1CC(O)=C(C2=NS(=O)(=O)c3cc(NS(C)(=O)=O)ccc3N2)C(=O)N1Cc1ccc(F)cc1 : 970

A. CC(C)CC[C@@]1(C)CN(Cc2ccc(F)cc2)C(=O)C(C2=NS(=O)(=O)c3cc(NS(C)(=O)=O)ccc3N2)=C1O
B. CC[C@H]1CC(O)=C(C2=Nc3ccc(NS(C)(=O)=O)cc3S(=O)(=O)N2)C(=O)N1Cc1ccc(F)cc1
input: Compare reported EC50 values for A and B . Which is lower? Write the label of whichever entry you select.
output: B
(B: 83 nM, A: 770 nM)

P. CC(C)(C)CC[C@]1(C)CN(C2CCCCC2)C(=O)C(C2=NS(=O)(=O)c3cc(NS(C)(=O)=O)ccc3N2)=C1O
Q. C[C@]1(CC2CC2)CN(Cc2ccc(F)cc2)C(=O)C(C2=NS(=O)(=O)c3cc(NS(C)(=O)=O)ccc3N2)=C1O
input: Returns: the argument ( P or Q ) having the larger EC50. Write the label of whichever entry you select.
output: P

---

Test system: Hepatitis C virus
Method description: microbe, parasite or virus in culture
Measurement parameters: genotype 1b, Huh-7, 72 h
Experimental readout: EC50 (nM)

CC(C)/C=C/C[C@@H]1CN(C2CCCC2)C(O)C(C2=NS(=O)(=O)c3cc(NS(C)(=O)=O)ccc3N2)=C1O (stereo not given in full) : 240
CCC(CC)[C@@H]1CC(O)=C(C2=NS(=O)(=O)c3cc(NS(C)(=O)=O)ccc3N2)C(=O)N1Cc1ccc(F)cc1 : 310
CC[C@@]1(C)CN(Cc2ccc(F)cc2)C(=O)C(C2=NS(=O)(=O)c3cc(NS(C)(=O)=O)ccc3N2)=C1O : 160
C[C@@]1(CCC2CC2)CN(C2CCC2)C(=O)C(C2=NS(=O)(=O)c3cc(NS(C)(=O)=O)ccc3N2)=C1O : 150
CS(=O)(=O)Nc1ccc2c(c1)S(=O)(=O)N=C(C1=C(O)C[C@@H](c3ccc(F)cc3)N(Cc3ccc(F)cc3)C1=O)N2 : 520

I. CC(C)CC[C@H]1CN(Cc2ccc(F)cc2)C(=O)C(C2=NS(=O)(=O)c3cc(NS(C)(=O)=O)ccc3N2)=C1O
II. CC(C)CC[C@@H]1CN(C2CCCC2)C(=O)C(C2=NS(=O)(=O)c3cc(NS(C)(=O)=O)ccc3N2)=C1O
input: Compare reported EC50 values for I and II . Which is lower? Write the label of whichever entry you select.
output: II
(II: 43 nM, I: 490 nM)

I. CC(C)=CC[C@H]1CN(Cc2ccc(F)cc2)C(=O)C(C2=NS(=O)(=O)c3cc(NS(C)(=O)=O)ccc3N2)=C1O
II. C[C@@]1(Cc2ccc(F)cc2)CN(C2CC2)C(=O)C(C2=NS(=O)(=O)c3cc(NS(C)(=O)=O)ccc3N2)=C1O
input: Compare reported EC50 values for I and II . Which is lower? Write the label of whichever entry you select.
output: I

a. CC(C)CC[C@]1(C)CN(C2CC2)C(=O)C(C2=NS(=O)(=O)c3cc(NS(C)(=O)=O)ccc3N2)=C1O
b. CS(=O)(=O)Nc1ccc2c(c1)S(=O)(=O)N=C(C1=C(O)[C@@H]3CCC[C@@H]3N(Cc3ccc(F)cc3)C1=O)N2
c. CS(=O)(=O)Nc1ccc2c(c1)S(=O)(=O)N=C(C1=C(O)C3(CCCC3)CN(Cc3ccc(F)cc3)C1=O)N2
d. CC(C)(C)CC[C@]1(C)CN(C2CC2)C(=O)C(C2=NS(=O)(=O)c3cc(NS(C)(=O)=O)ccc3N2)=C1O
e. CC(C)[C@H]1CC(O)=C(C2=NS(=O)(=O)c3cc(NS(C)(=O)=O)ccc3N2)C(=O)N1Cc1ccc(F)cc1
input: Arrange these compounds by their EC50, starting with the largest number. Rank them, then answer with their labels in that order.
output: c, d, a, e, b

I. C#CC[C@]1(C)CN(C2CCCC2)C(=O)C(C2=NS(=O)(=O)c3cc(NS(C)(=O)=O)ccc3N2)=C1O
II. CC(C)CC[C@@H]1CC(O)=C(C2=NS(=O)(=O)c3cc(NS(C)(=O)=O)ccc3N2)C(=O)N1Cc1ccc(F)cc1
input: Returns: the argument ( I or II ) having the larger EC50. Write the label of whichever entry you select.
output: II
(II: 5500 nM, I: 2900 nM)

---

Method description: in vitro
Measurement parameters: human, Huh7/C24 cells
Description: Cytotoxicity against human Huh7/C24 cells after 72 hrs by bDNA assay
Experimental readout: CC50 at 72 h

These recorded examples may help you get a feel for the data.
CC(C)(C)CC[C@]1(C)CN(C2CCCC2)C(=O)C(C2=NS(=O)(=O)c3cc(NS(C)(=O)=O)ccc3N2)=C1O : > 10 µM
CC(C)(C)CC[C@]1(C)CN(C2CCCCC2)C(=O)C(C2=NS(=O)(=O)c3cc(NS(C)(=O)=O)ccc3N2)=C1O : > 10 µM
CC[C@@]1(CCC(C)C)CN(C2CCCC2)C(=O)C(C2=NS(=O)(=O)c3cc(NS(C)(=O)=O)ccc3N2)=C1O : > 1 µM

input: Please give the documented CC50 at 72 h of `CC(C)CC[C@]1(C)CN(C2CCC2)C(=O)C(C2=NS(=O)(=O)c3cc(NS(C)(=O)=O)ccc3N2)=C1O`
output: > 10 µM

input: Please give the documented CC50 at 72 h of `CCC(CC)[C@@H]1CC(O)=C(C2=NS(=O)(=O)c3cc(NS(C)(=O)=O)ccc3N2)C(=O)N1Cc1ccc(F)cc1`
output: > 1 µM
